Molecular target: Gonadotropin-releasing hormone receptor (Homo sapiens, UniProt P30968)
Sequence (P30968 whole entry): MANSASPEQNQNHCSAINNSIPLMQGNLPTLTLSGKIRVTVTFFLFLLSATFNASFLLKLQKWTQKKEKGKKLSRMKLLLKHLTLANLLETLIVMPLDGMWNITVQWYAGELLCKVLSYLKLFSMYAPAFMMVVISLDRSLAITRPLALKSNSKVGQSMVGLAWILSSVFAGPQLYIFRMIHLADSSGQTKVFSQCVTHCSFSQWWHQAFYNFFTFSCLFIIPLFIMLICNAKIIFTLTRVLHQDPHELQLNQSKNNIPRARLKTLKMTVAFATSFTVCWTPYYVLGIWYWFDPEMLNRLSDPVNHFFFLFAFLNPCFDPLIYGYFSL
Assay: Antagonism of GnRH response in HEK293 cells expressing human GnRH receptor
Type: functional, cell-based
*1 amine or outer side, *2 acyl side, *3 side chain or, on linkers, in order; H or OH if unused. Where a SMILES comes first, the peptide text is derived from it. [ ]: non-standard residue; d: D form. The star is where a group is joined. Phe(4-NH(5-NH2triazol-3-yl)) = Nc1nc(Nc2ccc(C[C@H](N)C(=O)O)cc2)n[nH]1; X1 = Nc1nc(Nc2ccc(C[C@@H](N[*:1])C(=O)[*:2])cc2)n[nH]1; dPhe(4-NHCONH2) = NC(=O)Nc1ccc(C[C@@H](N)C(=O)O)cc1; Dihydroorotyl(S) = O=C1C[C@@H](C(=O)*)NC(=O)N1; dPhe(4-Cl) = N[C@H](Cc1ccc(Cl)cc1)C(=O)O; Phe(4-NH2) = Nc1ccc(C[C@H](N)C(=O)O)cc1; d2Nal = N[C@H](Cc1ccc2ccccc2c1)C(=O)O; Lys(iPr) = CC(C)NCCCC[C@H](N)C(=O)O; d3Pal = N[C@H](Cc1cccnc1)C(=O)O
Mark each entry label 1 if its IC50 sits below 2 nM, and label 0 for all others.

molecule: CC(=O)N[C@H](Cc1ccc2ccccc2c1)C(=O)N[C@H](Cc1ccc(Cl)cc1)C(=O)N[C@H](Cc1cccnc1)C(=O)N[C@@H](CO)C(=O)N[C@@H](Cc1ccc(NC(=O)[C@@H]2CC(=O)NC(=O)N2)cc1)C(=O)N[C@H](Cc1ccc(NC(N)=O)cc1)C(=O)N[C@@H](CC(C)C)C(=O)N(C)[C@@H](CCCCNC(C)C)C(=O)N1CCC[C@H]1C(=O)N[C@H](C)C(N)=O
cat: label 0
--
molecule: C#CC[C@H](NC(=O)[C@@H](Cc1ccc(NC(N)=O)cc1)NC(=O)[C@H](Cc1ccc(NC(=O)[C@@H]2CC(=O)NC(=O)N2)cc1)NC(=O)[C@H](CO)NC(=O)[C@@H](Cc1cccnc1)NC(=O)[C@@H](Cc1ccc(Cl)cc1)NC(=O)[C@@H](Cc1ccc2ccccc2c1)NC(C)=O)C(=O)N[C@@H](CCCCNC(C)C)C(=O)N1CCC[C@H]1C(=O)N[C@H](C)C(N)=O
cat: label 0
--
molecule: CC(=O)N[C@H](Cc1ccc2ccccc2c1)C(=O)N[C@H](Cc1ccc(Cl)cc1)C(=O)N[C@H](Cc1cccnc1)C(=O)N[C@@H](CO)C(=O)N[C@@H](Cc1ccc(NC(=O)[C@@H]2CC(=O)NC(=O)N2)cc1)C(=O)N[C@H](Cc1ccc(NC(N)=O)cc1)C(=O)N(C)[C@@H](CC(C)C)C(=O)N[C@@H](CCCCNC(C)C)C(=O)N1CCC[C@H]1C(=O)N[C@H](C)C(N)=O
cat: label 1
--
molecule: CC(=O)N[C@H](Cc1ccc2ccccc2c1)C(=O)N[C@H](Cc1ccc(Cl)cc1)C(=O)N[C@H](Cc1cccnc1)C(=O)N[C@@H](CO)C(=O)N[C@@H](Cc1ccc(Nc2n[nH]c(N)n2)cc1)C(=O)N[C@H](Cc1ccc(Nc2n[nH]c(N)n2)cc1)C(=O)N[C@@H](CC(C)C)C(=O)N[C@@H](CCCCNC(C)C)C(=O)N1CCC[C@H]1C(=O)N[C@H](C)C(N)=O [PRAZARELIX ACETATE] (Ac-[d2Nal][dPhe(4-Cl)][d3Pal]S[Phe(4-NH(5-NH2triazol-3-yl))][X1]L[Lys(iPr)]P[dA]-NH2)
cat: label 1
--
molecule: CC(=O)N[C@H](Cc1ccc2ccccc2c1)C(=O)N[C@H](Cc1ccc(Cl)cc1)C(=O)N[C@H](Cc1cccnc1)C(=O)N[C@@H](CO)C(=O)N[C@@H](Cc1ccc(NC(=O)[C@@H]2CC(=O)NC(=O)N2)cc1)C(=O)N[C@H](Cc1ccc(NC(N)=O)cc1)C(=O)N[C@@H](Cc1c[nH]cn1)C(=O)N[C@@H](CCCCNC(C)C)C(=O)N1CCC[C@H]1C(=O)N[C@H](C)C(N)=O
cat: label 0
--
molecule: CC(=O)N[C@H](Cc1ccc2ccccc2c1)C(=O)N[C@H](Cc1ccc(Cl)cc1)C(=O)N[C@H](Cc1cccnc1)C(=O)N[C@@H](CO)C(=O)N[C@@H](Cc1ccc(NC(=O)[C@@H]2CC(=O)NC(=O)N2)cc1)C(=O)N[C@H](Cc1ccc(NC(N)=O)cc1)C(=O)N[C@@H](CC(=O)N(C)C)C(=O)N[C@@H](CCCCNC(C)C)C(=O)N1CCC[C@H]1C(=O)N[C@H](C)C(N)=O
cat: label 0

Given CC(=O)N[C@H](Cc1ccc2ccccc2c1)C(=O)N[C@H](Cc1ccc(Cl)cc1)C(=O)N[C@H](Cc1cccnc1)C(=O)N[C@@H](CO)C(=O)N[C@@H](Cc1ccc(NC(=O)[C@@H]2CC(=O)NC(=O)N2)cc1)C(=O)N[C@H](Cc1ccc(NC(N)=O)cc1)C(=O)N[C@@H](CC(C)C)C(=O)N[C@@H](CCCCNC(C)C)C(=O)N1CCC[C@H]1C(=O)N[C@H](C)C(N)=O [DEGARELIX] (Ac-[d2Nal][dPhe(4-Cl)][d3Pal]S[Phe(4-NH2)](Dihydroorotyl(S))[dPhe(4-NHCONH2)]L[Lys(iPr)]P[dA]-NH2) , is recorded IC50 strictly lower than 2 nM?
label 1

How about this molecule: CC(=O)N[C@H](Cc1ccc2ccccc2c1)C(=O)N[C@H](Cc1ccc(Cl)cc1)C(=O)N[C@H](Cc1cccnc1)C(=O)N[C@@H](CO)C(=O)N[C@@H](Cc1ccc(NC(=O)[C@@H]2CC(=O)NC(=O)N2)cc1)C(=O)N[C@H](Cc1ccc(NC(N)=O)cc1)C(=O)N[C@@H](CS)C(=O)N[C@@H](CCCCNC(C)C)C(=O)N1CCC[C@H]1C(=O)N[C@H](C)C(N)=O
label 0

How about this molecule: CC(=O)N[C@H](Cc1ccc2ccccc2c1)C(=O)N[C@H](Cc1ccc(Cl)cc1)C(=O)N[C@H](Cc1cccnc1)C(=O)N[C@@H](CO)C(=O)N[C@@H](Cc1ccc(NC(=O)[C@@H]2CC(=O)NC(=O)N2)cc1)C(=O)N[C@H](Cc1ccc(NC(N)=O)cc1)C(=O)N[C@@H](CC(C)C)C(=O)N[C@@H](CCCCNC1CCCCC1)C(=O)N1CCC[C@H]1C(=O)N[C@H](C)C(N)=O
label 1
